System: ASK2;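 also: KINOMEscan kinase panel screen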
Construct: gene MAP3K6
run.conditions: concentration: 1 μM, replicates: in singlicate; n = 1
Assign %Inh to each entry below.
One number for each entry, in %.

Look over these answered cases.
q: For the compound shown here, Cc1c2ccc(N(C)c3ccnc(Nc4cccc(S(N)(=O)=O)c4)n3)cc2nn1Cc1ccccc1.Cl.Cl , give the reported %Inh.
a: 0

q: Requested field: %Inh. Item: COCCNC(=O)c1ccc(-c2cc(C(=O)NC3CC3)cc(F)c2C)cc1
a: 26

q: Fill blank: measured %Inh of the compound Cc1cn2c(=O)cc(N3CCOCC3)nc2n1Cc1cccc(Cl)c1Cl is ____.
a: 3

For each entry beneath this line, provide reported %Inh.
1. COc1cc2c(cc1OC[C@@H](O)CO)ncc1c3ccc(C#N)cc3[nH]c21
2. Cn1ccc2ncnc(Oc3ccc(NC(=O)Nc4ccncc4)c(Cl)c3)c21
3. O=C(NCCCN1CCOCC1)c1cccc(Nc2nccc(Nc3ccc(Oc4ccccc4)cc3)n2)c1
4. Nc1nccc(-c2c(-c3ccc(F)cc3)ncn2C2CCN(CC(F)(F)F)CC2)n1
5. COc1cc(Nc2nccc(N3CCC(NC(=O)c4cccc(NC(C)=O)c4)C3)n2)cc(OC)c1OC (centres unmarked)

a:
1. 0
2. 0
3. 0
4. 0
5. 0
